# tested.system: MAPK14 (Homo sapiens)
# Construct: endogenous in cells
# Sequence (Q16539 whole entry): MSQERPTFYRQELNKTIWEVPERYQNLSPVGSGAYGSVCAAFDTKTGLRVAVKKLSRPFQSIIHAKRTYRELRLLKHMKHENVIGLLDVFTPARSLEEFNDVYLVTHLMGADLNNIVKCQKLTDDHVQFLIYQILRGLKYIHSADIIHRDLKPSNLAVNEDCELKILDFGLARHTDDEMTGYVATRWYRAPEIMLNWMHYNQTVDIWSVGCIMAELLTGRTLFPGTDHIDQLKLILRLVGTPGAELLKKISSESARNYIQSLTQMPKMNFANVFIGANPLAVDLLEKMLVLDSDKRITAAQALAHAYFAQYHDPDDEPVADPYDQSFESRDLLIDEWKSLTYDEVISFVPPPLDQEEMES
# assay.protocol: KinAffinity target profiling
# measurement.context: PC9 cell extract, read-out: KD_free
readout: Kd (nM)
Express it in nM; write the number only.

# input // Kd lookup, key: CN1CCN(CCOc2cc(OC3CCOCC3)c3c(Nc4c(Cl)ccc5c4OCO5)ncnc3c2)CC1
# output 332

* * *

# tested.system: LYN (Homo sapiens)
# Construct: endogenous in cells
# Sequence (P07948 whole entry): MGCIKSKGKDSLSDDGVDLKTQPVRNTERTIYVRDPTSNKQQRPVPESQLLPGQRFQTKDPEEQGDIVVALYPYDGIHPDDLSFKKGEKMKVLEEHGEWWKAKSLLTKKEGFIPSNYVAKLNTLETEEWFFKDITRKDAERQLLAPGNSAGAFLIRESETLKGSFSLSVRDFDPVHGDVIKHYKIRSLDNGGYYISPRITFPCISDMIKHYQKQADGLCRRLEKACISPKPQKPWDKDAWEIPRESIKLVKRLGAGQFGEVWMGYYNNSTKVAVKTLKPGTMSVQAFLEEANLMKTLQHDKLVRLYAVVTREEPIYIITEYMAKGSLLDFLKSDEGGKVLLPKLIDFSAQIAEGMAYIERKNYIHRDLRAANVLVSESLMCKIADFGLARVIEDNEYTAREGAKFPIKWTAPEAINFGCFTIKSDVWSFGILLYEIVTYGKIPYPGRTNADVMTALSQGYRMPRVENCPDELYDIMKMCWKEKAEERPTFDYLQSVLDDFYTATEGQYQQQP
# assay.protocol: KinAffinity target profiling
# measurement.context: PC9 cell extract, read-out: KD_free
readout: Kd
Answer by giving the amount and then stating its unit.

# input Query: Kd; subject: CN1CCN(CCOc2cc(OC3CCOCC3)c3c(Nc4c(Cl)ccc5c4OCO5)ncnc3c2)CC1
# output 15 nM
